Hey, just so you know, these numbers are from paper PMC9604662.

- System: breast adenocarcinoma MDA-MB-231 cells
- assay.overview: MTS cell viability assay, MDA-MB-231
- Assay type: cell-based, human
- condition.context: Homo sapiens, MDA-MB-231; MTS assay, 24 h exposure, mean ± SD; read-out: Half Maximal Inhibitory Concentration (IC50) MDA-MB-231
measured.endpoint: IC50 (µM)
Field: numeric (µM). Do not append units.

Give a short answer stating reported IC50 for COc1cccc2c1C(=O)c1c(O)c3c(c(O)c1C2=O)C[C@@](O)(C(=O)CO)C[C@@H]3O[C@H]1C[C@H](N)[C@H](O)[C@H](C)O1 [Doxorubicin, reference compound] .
22.3

Give a short answer stating reported IC50 for CCCCCCC/C=C/C(C)=C/CC/C=C/[C@@H](O)[C@H](CO[C@@H]1O[C@H](CO)[C@@H](O)[C@H](O)[C@H]1O)NC(=O)[C@H](O)CCCCCCCCCCCCCCCCCCCCC [Compound 6, ophidiacerebroside D] .
40.5

Give a short answer stating reported IC50 for CCCCCCC/C=C/C(C)=C/CC/C=C/[C@@H](O)[C@H](CO[C@@H]1O[C@H](CO)[C@@H](O)[C@H](O)[C@H]1O)NC(=O)[C@H](O)CCCCCCCCCCCCCCCCCCCC [Compound 5, ophidiacerebroside C] .
48.7

Give a short answer stating reported IC50 for `CCCCCCCCCCCCCCC[C@@H](O)C(=O)N[C@@H](CO)[C@H](O)[C@H](O)CCCC/C=C\CCCCCCCCCCC(C)C` .
49.4

Give a short answer stating reported IC50 for `CCCCCCCCCCCCCC[C@@H](O)C(=O)N[C@@H](CO)[C@H](O)[C@H](O)CCCC/C=C\CCCCCCCCCCC(C)C` .
48.7
